target: CSF-1R (Homo sapiens)
Sequence (P07333 20-972): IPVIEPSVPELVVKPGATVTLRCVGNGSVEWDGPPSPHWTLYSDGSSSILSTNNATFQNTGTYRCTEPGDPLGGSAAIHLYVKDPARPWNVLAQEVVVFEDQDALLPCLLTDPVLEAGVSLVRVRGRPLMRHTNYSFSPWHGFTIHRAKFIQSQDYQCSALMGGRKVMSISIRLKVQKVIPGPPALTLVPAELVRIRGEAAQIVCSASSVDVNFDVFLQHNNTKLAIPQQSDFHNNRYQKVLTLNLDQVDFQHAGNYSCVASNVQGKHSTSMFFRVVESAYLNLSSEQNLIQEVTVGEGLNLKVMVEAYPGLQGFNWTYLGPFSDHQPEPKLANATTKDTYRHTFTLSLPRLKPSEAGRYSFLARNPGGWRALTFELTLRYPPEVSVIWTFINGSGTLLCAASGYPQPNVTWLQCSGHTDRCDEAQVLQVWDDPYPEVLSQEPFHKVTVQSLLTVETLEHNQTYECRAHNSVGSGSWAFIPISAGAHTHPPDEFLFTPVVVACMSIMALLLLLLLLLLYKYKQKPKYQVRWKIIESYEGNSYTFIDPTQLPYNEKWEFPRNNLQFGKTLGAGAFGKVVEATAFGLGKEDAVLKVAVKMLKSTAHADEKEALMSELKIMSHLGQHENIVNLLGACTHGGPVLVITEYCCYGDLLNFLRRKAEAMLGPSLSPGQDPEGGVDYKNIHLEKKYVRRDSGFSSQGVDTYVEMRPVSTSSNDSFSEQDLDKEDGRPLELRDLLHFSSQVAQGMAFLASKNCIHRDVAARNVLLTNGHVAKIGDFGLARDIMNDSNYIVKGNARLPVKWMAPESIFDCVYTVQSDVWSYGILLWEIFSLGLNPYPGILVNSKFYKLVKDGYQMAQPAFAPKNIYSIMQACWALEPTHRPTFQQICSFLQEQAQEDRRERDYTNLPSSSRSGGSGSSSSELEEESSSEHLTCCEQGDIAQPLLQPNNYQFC
assayOverview: Peptide (non-phosphorylated) assay, fluorescence polarization competition immunoassay
Type: biochemical
details: 0.7 nM CSF-1R, 308 μM SYEGNSYTFIDPTQ peptide, 1 mM ATP, 80 min; mean of at least three determinations; read-out: c-fms Peptide IC50
pIC50: −log10 of the molar value.
metric: pIC50

I: CN1CCN(CCc2ccc(Nc3ncc4c(=O)c(C(=O)N5CCCCC5)cn(-c5ccc6c(c5)CCC6)c4n3)cc2)CC1 [Cpd 64]
II: CONC(=O)c1cn(-c2ccc3c(c2)CCC3)c2nc(Nc3ccc(C4CCN(CCS(C)(=O)=O)CC4)cc3)ncc2c1=O [Cpd 78]
III: CONC(=O)c1cn(-c2ccc3c(c2)CCC3)c2nc(Nc3cccc(CCN4CCN(C)CC4)c3)ncc2c1=O [Cpd 200]
IV: CNC(=O)c1cn(-c2ccc3c(c2)CCC3)c2nc(Nc3cccc(CCCN(C)C)c3)ncc2c1=O [Cpd 116]
V: CCc1ccc(-n2cc(C(=O)NOC)c(=O)c3cnc(Nc4ccc(-c5cccc(OC)c5)cc4)nc32)cc1 [Cpd 299]
Hey, quick one: sort these by pIC50, largest value first please. To answer, write out the labels according to the requested order. II, III, IV, V, I
(II: 9.14, III: 8.89, IV: 8.28, V: 7.49, I: 6.74)

I: CN(C)C(=O)c1ccc(Nc2ncc3c(=O)c(C(N)=O)cn(-c4ccc5c(c4)CCC5)c3n2)cc1 [Cpd 123]
II: CCN1CCC(c2ccc(Nc3ncc4c(=O)c(C(=O)NOC)cn(-c5ccc6c(c5)CCC6)c4n3)cc2)CC1 [Cpd 155]
Lab log: flag the item ( I or II ) with the smaller pIC50 figure. Record your answer as the label of the chosen record. I
(I: 8.35, II: 9.92)

a: CCc1ccc(-n2cc(C(=O)NOC)c(=O)c3cnc(Nc4ccc(C5CCN(CCc6ccccc6)CC5)cc4)nc32)cc1 [Cpd 295]
b: O=C(NCCO)c1cn(C2CCCC2)c2nc(Nc3ccc(CCN4CCCC4)cc3)ncc2c1=O [Cpd 43]
Lab log: flag the item ( a or b ) with the smaller pIC50 figure. Record your answer as the label of the chosen record. b
(b: 7.51, a: 8.92)

P: CCc1ccc(-n2cc(C(=O)NOC(C)C)c(=O)c3cnc(Nc4ccc(C5CCN(CCO)CC5)cc4)nc32)cc1 [Cpd 184]
Q: CCONC(=O)c1cn(-c2ccc3c(c2)CCC3)c2nc(Nc3ccc(CCN4CCCC4=O)cc3)ncc2c1=O [Cpd 135]
Lab log: flag the item ( P or Q ) with the smaller pIC50 figure. Record your answer as the label of the chosen record. Q

A: CCc1ccc(-n2cc(C(=O)NOC)c(=O)c3cnc(Nc4ccc5c(c4)CNCC5)nc32)cc1 [Cpd 282]
B: CONC(=O)c1cn(C2CCCC2)c2nc(Nc3ccc(CCN4CCCC4)cc3)ncc2c1=O [Cpd 39]
Select one: A or B . Criterion: greater recorded pIC50. Record your answer as the label of the chosen record. A
(A: 9.70, B: 8.96)

A: CCc1ccc(-n2cc(C(=O)NOC)c(=O)c3cnc(Nc4ccc(CCN5CCCC5=O)cc4)nc32)cc1 [Cpd 54]
B: CONC(=O)c1cn(-c2ccc3c(c2)CCC3)c2nc(Nc3cccc(C4(O)CCNC4)c3)ncc2c1=O (stereo not drawn) [Cpd 274]
C: CONC(=O)c1cn(-c2ccc3c(c2)CCC3)c2nc(Nc3ccc(CCNS(C)(=O)=O)cc3)ncc2c1=O [Cpd 82]
D: CCONC(=O)c1cn(C2CCCCC2)c2nc(Nc3ccc(CCN4CCN(C)CC4)cc3)ncc2c1=O [Cpd 19]
List these items ordered by pIC50, big to small. To answer, write out the labels according to the requested order. B, D, A, C

I: CONC(=O)c1cn(-c2ccc3c(c2)CCC3)c2nc(Nc3ccc4cc[nH]c4c3)ncc2c1=O [Cpd 289]
II: CC(C)ONC(=O)c1cn(-c2ccc3c(c2)CCC3)c2nc(Nc3ccc(CCN4CCCC4)cc3)ncc2c1=O [Cpd 133]
Select one: I or II . Criterion: greater recorded pIC50. Record your answer as the label of the chosen record. II

A: CONC(=O)c1cn(-c2ccc3c(c2)CCC3)c2nc(Nc3ccc(C4CCN(S(N)(=O)=O)CC4)cc3)ncc2c1=O [Cpd 178]
B: CN1CCN(CCc2ccc(Nc3ncc4c(=O)c(C(=O)NCCO)cn(-c5ccc6c(c5)CCC6)c4n3)cc2)CC1 [Cpd 65]
Select one: A or B . Criterion: greater recorded pIC50. Record your answer as the label of the chosen record. B
(B: 9.17, A: 8.59)
